- Tested on: OVCAR-5 ovarian
- procedureDetails: NCI tumour cell line growth inhibition, 48 h
Answer each item with its documented TGI.

Some molecules with recorded TGI:
In [3]: df
Out[3]:
                                   molecule   reading
0  [N-]=[N+]=CC(=O)CCC(=O)N(c1ccccc1)c1ccccc1   > 10 µM
1          Cc1cccc2c1c(=O)c1c(O)cc(O)cc1n2C  > 100 µM
2  O=C(N/N=C/C=C/c1ccc([N+](=O)[O-])o1)c1ccc(C(=O)N/N=C/C=C/c2ccc([N+](=O)[O-])o2)cc1  > 100 µM

Batch: TGI for all items listed.
1. O=C1CCCc2ccc3c(c21)CC1(Cc2ccccc2C1)C3
2. CCO/C(Cc1ccc(Cl)cc1)=N/NC(N)=S

Result:
["> 100 µM", "> 100 µM"]

Per the records, this molecule ( COc1ccc2c(c1OC(C)=O)C1=CC(=O)CCC13CCNC3C2 (stereo unspecified) ) has TGI equal to > 100 µM
